molecular target: HEK293 cells that stably express human DAAO (Homo sapiens (Human)); assay: Inhibitory activity test at cellular level using DAAO-expressing cells; assay type: cell-based; settings: D-alanine substrate

SMILES RECORD	UNIT TEXT	IC50
CC(C)(C)c1ccc(CCc2cc(O)c(=O)[nH]n2)cc1	nM	18
CCCCc1cc(O)c(=O)[nH]n1	nM	13
O=c1[nH]nc(CCc2ccc(-c3ccccc3)cc2)cc1O	nM	16
O=c1[nH]nc(CCc2cccc3ccccc23)cc1O	nM	8.8
Cc1ccc(CCc2cc(O)c(=O)[nH]n2)cc1	nM	14
O=c1[nH]nc(CCCCc2ccccc2)cc1O	nM	11
O=c1cc(COc2cccc(F)c2)[nH]nc1O	nM	13
Cc1cc(C)cc(CCc2cc(O)c(=O)[nH]n2)c1	nM	9.8
Cc1cccc(CCc2cc(O)c(=O)[nH]n2)c1	nM	4.6
O=c1cc(COc2ccc(F)cc2)[nH]nc1O	nM	13
Cc1ccccc1CCc1cc(O)c(=O)[nH]n1	nM	8.4
COc1ccc(SCc2cc(=O)c(O)n[nH]2)cc1	nM	12
O=c1[nH]nc(CCc2ccc(F)cc2F)cc1O	nM	5.5
O=c1[nH]nc(CCc2ccc(OC(F)(F)F)cc2)cc1O	nM	18
